system: pENSA; assay: pENSA level by immunofluorescence (described method: in vitro kinase analysis with GST-tag-MASTL and His-tag-ENSA); assay type: cell-based; conditions: read-out: IC50(nM) pENSA
endpoint-label: IC50 (nM)
Provide only the numeric value, understood in nM.

{"columns": ["compound", "endpoint-label", "numeric-value"],
 "data": [
  ["CN(C)S(=O)(=O)c1ccc(Nc2nc(Nc3cc(C4CC4)[nH]n3)c3ccccc3n2)cc1", "IC50", 420],
  ["N#CCc1ccc(Nc2nc(Nc3ccccc3O)c3ccccc3n2)cc1", "IC50", 678],
  ["CS(=O)(=O)Cc1ccc(Nc2nc(Nc3cc(C4CC4)[nH]n3)c3ccccc3n2)cc1", "IC50", 899],
  ["CNS(=O)(=O)c1ccc(Nc2nc(Nc3cc(C4CC4)[nH]n3)c3ccccc3n2)cc1", "IC50", 408],
  ["CC(C)C(=O)N1CC=C(c2nc(Nc3cc(C4CC4)[nH]n3)c3ccccc3n2)CC1", "IC50", 832]
]}

IC50 lookup needed for Cc1cc(Nc2nc(Nc3ccc(CC#N)cc3)nc3ccccc23)n[nH]1 , thanks.
239

// returns reported IC50 for input O=S(=O)(C1CCCCC1)N1CC2CCC1CN2c1nc(Nc2cc(C3CC3)[nH]n2)c2ccccc2n1 (centres unmarked) [compound 24b]
770

Param item = COc1ccc(CNc2nc(Nc3cc(C4CC4)[nH]n3)c3ccccc3n2)cc1 ; retrieve measured IC50.
543

Item under review: O=C(Nc1ccccc1)N1CC2CC1CN2c1nc(Nc2cc(C3CC3)[nH]n2)c2ccccc2n1 (centres unmarked) [compound 15c] . Reported IC50?
576

Suppose we examine the compound Fc1cc(Br)ccc1Nc1nc(Nc2cc(C3CC3)[nH]n2)c2ccccc2n1 ; what IC50 value has been reported?
850
